Several publications report IC50 on Somatostatin receptor type 1 (Homo sapiens, UniProt P30872); those values are gathered here.
Sequence (P30872 whole entry): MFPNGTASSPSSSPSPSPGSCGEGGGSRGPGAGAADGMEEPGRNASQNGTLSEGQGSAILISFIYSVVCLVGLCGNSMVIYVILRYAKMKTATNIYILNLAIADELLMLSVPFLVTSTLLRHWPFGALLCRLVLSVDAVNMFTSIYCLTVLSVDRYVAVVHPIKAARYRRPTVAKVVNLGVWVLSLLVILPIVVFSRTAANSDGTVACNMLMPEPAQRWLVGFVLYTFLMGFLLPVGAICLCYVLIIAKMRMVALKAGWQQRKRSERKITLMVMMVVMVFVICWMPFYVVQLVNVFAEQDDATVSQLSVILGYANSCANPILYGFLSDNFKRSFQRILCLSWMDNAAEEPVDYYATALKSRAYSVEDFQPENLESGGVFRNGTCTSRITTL

Recorded results for 2 molecules are shown here.
# Input smiles, Assayed system, Experimental result
rows = [
    ("C[C@@H](O)[C@@H]1NC(=O)[C@H](CCCCN)NC(=O)[C@H]([C@@H](C)c2ccc3ccccc3c2)NC(=O)[C@H](Cc2ccc(O)cc2)NC(=O)[C@H](Cc2ccccc2)NC(=O)[C@H](N)CSSC[C@@H](C(=O)O)NC(=O)[C@H](Cc2ccccc2)NC1=O", "Somatostatin receptor type 1 (Homo sapiens, UniProt P30872)", "> 10000 nM"),
    ("CC(C)[C@@H]1NC(=O)[C@H](CCCCN)NC(=O)[C@@H](Cc2c[nH]c3ccccc23)N(C)C(=O)[C@H](Cc2ccc(O)cc2)NC(=O)[C@H](C)N(C)C(=O)[C@H](Cc2ccccc2)N(C)C1=O", "Somatostatin receptor type 1 (Homo sapiens, UniProt P30872)", "> 1000 nM"),
]

Now examine the next entry.
Prompt line: Report the value of IC50 obtained on Somatostatin receptor type 1 (Homo sapiens, UniProt P30872) for "C[C@@H](O)[C@@H]1NC(=O)[C@H](CCCCN)NC(=O)[C@@H](Cc2c[nH]c3ccccc23)NC(=O)[C@H](Cc2ccc(O)cc2)NC(=O)[C@H](NC(=O)[C@H](N)Cc2ccc3ccccc3c2)CSSC[C@@H](C(=O)N[C@@H](Cc2ccc3ccccc3c2)C(N)=O)NC1=O" .
Response line: 1040 nM

###

Literature survey of pIC50 (system: Somatostatin receptor type 1 (Homo sapiens)).
pIC50: −log10 of the molar value.
Value type: pIC50

Solved entries (count: 7):
# Compound, pIC50
data = [
    ("CC(C)NCc1ccc(C[C@@H]2NC(=O)[C@@H](Cc3c[nH]c4ccccc34)NC(=O)[C@H](Cc3ccccc3)NC(=O)[C@H](Cc3ccccc3)NC(=O)[C@H](CCCCN)NC(=O)[C@@H](N)CSSC[C@@H](C(=O)O)N(C)C(=O)[C@H](CO)NC(=O)[C@H]([C@@H](C)O)NC(=O)[C@H](Cc3ccccc3)NC(=O)[C@H]([C@@H](C)O)NC2=O)cc1", 6.82),
    ("CC(C)[C@@H]1NC(=O)[C@H](CCCCN)NC(=O)[C@@H](Cc2c[nH]c3ccccc23)NC(=O)[C@H](Cc2ccc(O)cc2)NC(=O)[C@@H](NC(=O)[C@H](N)Cc2ccc3ccccc3c2)CSSC[C@H](C(=O)N[C@@H](Cc2ccc3ccccc3c2)C(N)=O)NC1=O (stereo in doubt; 23)", 6.31),
    ("CC(C)NCc1ccc(C[C@@H]2NC(=O)[C@@H](Cc3ccc4ccccc4c3)NC(=O)[C@H](Cc3ccccc3)NC(=O)[C@H](Cc3ccccc3)NC(=O)[C@H](CCCCN)NC(=O)[C@@H](N)CSSC[C@@H](C(=O)N[C@@H](CCCCN)C(=O)O)N(C)C(=O)[C@H](CO)NC(=O)[C@H]([C@@H](C)O)NC(=O)[C@H](Cc3ccccc3)NC(=O)[C@H]([C@@H](C)O)NC2=O)cc1", 6.59),
    ("NCCCC[C@H]1NC(=O)[C@@H](Cc2c[nH]c3ccccc23)SCCN(Cc2cccc3ccccc23)C1=O", 6.30),
    ("CC(C)NCc1ccc(C[C@@H]2NC(=O)[C@@H](Cc3ccc4ccccc4c3)NC(=O)[C@H](Cc3ccccc3)NC(=O)[C@H](Cc3ccccc3)NC(=O)[C@H](CCCCN)NC(=O)[C@@H](N)CSSC[C@@H](C(=O)O)N(C)C(=O)[C@H](CO)NC(=O)[C@H]([C@@H](C)O)NC(=O)[C@H](Cc3ccccc3)NC(=O)[C@H]([C@@H](C)O)NC2=O)cc1", 6.59),
    ("C[C@@H](O)[C@@H]1NC(=O)[C@H](Cc2ccccc2)NC(=O)[C@H]([C@@H](C)O)NC(=O)[C@H](CCCCN)NC(=O)[C@@H](Cc2c[nH]c3ccccc23)NC(=O)[C@H](Cc2ccccc2)NC(=O)[C@H](Cc2ccccc2)NC(=O)[C@@H](N)CSSC[C@@H](C(=O)O)NC(=O)[C@H](CO)NC1=O", 7.10),
    ("C[C@@H](O)[C@@H]1NC(=O)[C@H](Cc2ccccc2)NC(=O)[C@H]([C@@H](C)O)NC(=O)[C@H](CCCCN)NC(=O)[C@@H](Cc2c[nH]c3ccccc23)NC(=O)[C@H](Cc2ccccc2)NC(=O)[C@H](Cc2ccccc2)NC(=O)[C@H](CC(N)=O)NC(=O)[C@@H](N)CSSC[C@@H](C(=O)O)NC1=O", 6.95),
]

(A) CC(C)NCc1ccc(C[C@@H]2NC(=O)[C@H](N(C)C(=O)c3ccc4ccccc4c3)NC(=O)[C@H](Cc3ccccc3)NC(=O)[C@@H](N)CSSC[C@@H](C(N)=O)NC(=O)[C@H](Cc3ccc(O)cc3)NC2=O)cc1
(B) Cc1nc([C@]2(c3cnn(C)c3)N[C@@H](c3nc(-c4ccc(F)cn4)c[nH]3)Cc3c2[nH]c2ccccc32)no1
Prompt line: Determine, for A and B , which has the greater value of pIC50. Write down the label of the entry you select.
Response line: A
(A: 6.28, B: 5.64)
